protocol.summary: Maximum concentration in rat plasma after 5 mg/kg oral gavage
Format: ADME, organism-based
Set-up: dose 5 mg/kg, route oral
outcome.measure: Cmax (ng/mL)

(A) CNC(=O)OC[C@H]1OC(n2cnc3c(N[C@@H]4CCOC4)ncnc32)[C@H](OC(C)=O)[C@@H]1OC(C)=O (some centres not stated)
(B) CNC(=O)OC[C@H]1OC(n2cnc3c(N[C@@H]4CCOC4)ncnc32)[C@H](O)[C@@H]1O (some centres not stated)
Req: Hi there, can you help? I need to know whether A or B has lower measured Cmax. Let me know the label of the one you choose.
Resp: B
(B: 305 ng/mL, A: 647 ng/mL)

###

protocol.summary: Compound remaining after incubation with 2 mg/mL of human liver microsomes at 37 degrees C for 30 min in a pH 7.4, 0.05 M phosphate buffer
Type: ADME, Microsome
outcome.measure: remaining at 0.5 h (%)

Guide cases for remaining at 0.5 h, answers given:
> print(dat)
                                   compound     outcome.measure  recorded.measurement
1  CNC(=S)OC[C@H]1OC(n2cnc3c(N[C@@H]4CCOC4)ncnc32)[C@H](O)[C@@H]1O (stereo not given in full)  remaining at 0.5 h                    99
2  CNC(=S)OC[C@H]1OC(n2cnc3c(N[C@@H]4CCOC4)nc(Cl)nc32)[C@H](O)[C@@H]1O (stereo not given in full)  remaining at 0.5 h                    62

(I) CCCNC(=S)OC[C@H]1OC(n2cnc3c(N[C@@H]4CCOC4)ncnc32)[C@H](O)[C@@H]1O (stereo not given in full)
(II) CCNC(=S)OC[C@H]1OC(n2cnc3c(N[C@@H]4CCOC4)nc(Cl)nc32)[C@H](O)[C@@H]1O (stereo not given in full)
Req: Lab note: check whether I or II has the lower measured remaining at 0.5 h. State your choice using its label.
Resp: II

###

System: Adenosine receptor A1 (Mesocricetus auratus)
protocol.summary: Stimulation of binding of [35S]GTP uM)
outcome.measure: [35S]GTPγS binding stimulation (% of CPA) (%)

In the examples that follow, each entry is paired with its recorded [35S]GTPγS binding stimulation (% of CPA).
> print(dat)
                                   compound  recorded.measurement
1  O=C(NC1CCCCC1)OC[C@H]1OC(n2cnc3c(N[C@@H]4CCOC4)ncnc32)[C@H](O)[C@@H]1O (some centres undefined)                    80
2  O=C(NC1CCCC1)OC[C@H]1OC(n2cnc3c(N[C@@H]4CCOC4)nc(Cl)nc32)[C@H](O)[C@@H]1O (some centres undefined)                    69
3  O[C@@H]1[C@@H](COC(=S)NC2CC2)OC(n2cnc3c(N[C@@H]4CCOC4)ncnc32)[C@@H]1O (some centres undefined)                    82

(P) CCCNC(=S)OC[C@H]1OC(n2cnc3c(N[C@@H]4CCOC4)ncnc32)[C@H](O)[C@@H]1O (some centres undefined)
(Q) CCCCNC(=O)OC[C@H]1OC(n2cnc3c(N[C@@H]4CCOC4)ncnc32)[C@H](O)[C@@H]1O (some centres undefined)
Req: Smaller [35S]GTPγS binding stimulation (% of CPA) value, P vs Q ? The response must carry the label of the picked entry.
Resp: Q
